Data origin, for the record: patent US10745460B2

biological target: HLA-A*02:01 (Homo sapiens, UniProt P04439, D140Y/D185E/D98H/E176V/E277Q/G131W/G231S/I119V/I121R/I166T/I218V/L300P/L318F/N151K/N90K/P208A/P217A/Q86G/Q94H/R138H/R169H/T345S); test: MHC binding assay: UV-ligand exchange with β2m ELISA (peptide exchange yield); details: binding to HLA-A*02:01 evaluated by peptide exchange yield (UV-ligand exchange, β2m ELISA)
parameter: Peptide exchange

I would be grateful if you could share the reported Peptide exchange for 204 (SEWGSPHAAVP; listed as Homo sapiens) [compound 204] .
+++ (≥50 = +++)

And then 216 (ALSTVTPRI; listed as Homo sapiens) [compound 216] , what is it?
++ (≥20% = ++)

And then 207 (KLFETVEEL; listed as Homo sapiens) [compound 207] , what is it?
+++ (≥50 = +++)

And then 50 (ILLSVLHQL; listed as Homo sapiens) [compound 50] , what is it?
+++ (≥50 = +++)

And then 164 (MLIIRVPSV; listed as Homo sapiens) [compound 164] , what is it?
+++ (≥50 = +++)

Next:
I would be grateful if you could share the reported Peptide exchange for 187 (SILKEDPFL; listed as Homo sapiens) [compound 187] .
++ (≥20% = ++)

And then 24 (KVWSDVTPL; listed as Homo sapiens) [compound 24] , what is it?
+++ (≥50 = +++)

And then 7 (ALLQALMEL; listed as Homo sapiens) [compound 7] , what is it?
+++ (≥50 = +++)

And then 168 (VIFEGEPMYL; listed as Homo sapiens) [compound 168] , what is it?
+++ (≥50 = +++)

And then 110 (QIQGQVSEV; listed as Homo sapiens) [compound 110] , what is it?
++ (≥20% = ++)

And then 67 (FLIENLLAA; listed as Homo sapiens) [compound 67] , what is it?
+++ (≥50 = +++)

And then 276 (RMPTVLQCV; listed as Homo sapiens) [compound 276] , what is it?
+++ (≥50 = +++)

And then 261 (GLAALAVHL; listed as Homo sapiens) [compound 261] , what is it?
+++ (≥50 = +++)

And then 236 (KMSELQTYV; listed as Homo sapiens) [compound 236] , what is it?
+++ (≥50 = +++)

And then 51 (LDSEALLTL; listed as Homo sapiens) [compound 51] , what is it?
++ (≥20% = ++)

And then 233 (SLFESLEYL; listed as Homo sapiens) [compound 233] , what is it?
+++ (≥50 = +++)

And then 23 (ALLSPLSLA; listed as Homo sapiens) [compound 23] , what is it?
+++ (≥50 = +++)

And then 163 (GLEERLYTA; listed as Homo sapiens) [compound 163] , what is it?
++ (≥20% = ++)

And then 195 (VIIQNLPAL; listed as Homo sapiens) [compound 195] , what is it?
+++ (≥50 = +++)

And then 218 (SLTGANITV; listed as Homo sapiens) [compound 218] , what is it?
+++ (≥50 = +++)

* * *

molecular target: HLA-A*02:01 (Homo sapiens, UniProt P04439, D140Y/D185E/D98H/E176V/E277Q/G131W/G231S/I119V/I121R/I166T/I218V/L300P/L318F/N151K/N90K/P208A/P217A/Q86G/Q94H/R138H/R169H/T345S); assay: MHC binding assay: UV-ligand exchange with β2m ELISA (peptide exchange yield); conditions: binding to HLA-A*02:01 evaluated by peptide exchange yield (UV-ligand exchange, β2m ELISA)
parameter: Peptide exchange

The cases that follow already have their Peptide exchange on record.
I would be grateful if you could share the reported Peptide exchange for 284 (KLMDPGSLPPL; listed as Homo sapiens) [compound 284] .
++ (≥20% = ++)

And then 180 (RLYEEEIRI; listed as Homo sapiens) [compound 180] , what is it?
+++ (≥50 = +++)

And then 16 (SLADLSLLL; listed as Homo sapiens) [compound 16] , what is it?
+++ (≥50 = +++)

And then 19 (KVFELDLVTL; listed as Homo sapiens) [compound 19] , what is it?
++ (≥20% = ++)

Now look at this entry.
I would be grateful if you could share the reported Peptide exchange for 60 (YLFSQGLQGL; listed as Homo sapiens) [compound 60] .
+++ (≥50 = +++)

* * *

Target: HLA-A*02:01 (Homo sapiens, UniProt P04439, D140Y/D185E/D98H/E176V/E277Q/G131W/G231S/I119V/I121R/I166T/I218V/L300P/L318F/N151K/N90K/P208A/P217A/Q86G/Q94H/R138H/R169H/T345S)
Test: MHC binding assay: UV-ligand exchange with β2m ELISA (peptide exchange yield)
Details: binding to HLA-A*02:01 evaluated by peptide exchange yield (UV-ligand exchange, β2m ELISA)
Text: Candidate peptides for T cell based therapies according to the present invention were further tested for their MHC binding capacity (affinity). The individual peptide-MHC complexes were produced by UV-ligand exchange, where a UV-sensitive peptide is cleaved upon UV-irradiation, and exchanged with the peptide of interest as analyzed. Only peptide candidates that can effectively bind and stabilize the peptide-receptive MHC molecules prevent dissociation of the MHC complexes. […]
parameter: Peptide exchange

I would be grateful if you could share the reported Peptide exchange for 41 (IVTEIISEI; listed as Homo sapiens) [compound 41] .
+++ (≥50 = +++)

And then 251 (LLWGNLPEI; listed as Homo sapiens) [compound 251] , what is it?
+++ (≥50 = +++)

And then 153 (KLVELEHTL; listed as Homo sapiens) [compound 153] , what is it?
+++ (≥50 = +++)

And then 140 (FLDSQITTV; listed as Homo sapiens) [compound 140] , what is it?
+++ (≥50 = +++)

And then 208 (HLNNDRNPL; listed as Homo sapiens) [compound 208] , what is it?
++ (≥20% = ++)

Next:
I would be grateful if you could share the reported Peptide exchange for 235 (SLLNQPKAV; listed as Homo sapiens) [compound 235] .
++ (≥20% = ++)

And then 25 (LLWGHPRVALA; listed as Homo sapiens) [compound 25] , what is it?
+++ (≥50 = +++)

And then 170 (FIAAVVEKV; listed as Homo sapiens) [compound 170] , what is it?
++ (≥20% = ++)

And then 241 (KQFEGTVEI; listed as Homo sapiens) [compound 241] , what is it?
+++ (≥50 = +++)

* * *

molecular target: HLA-A*02:01 (Homo sapiens, UniProt P04439, D140Y/D185E/D98H/E176V/E277Q/G131W/G231S/I119V/I121R/I166T/I218V/L300P/L318F/N151K/N90K/P208A/P217A/Q86G/Q94H/R138H/R169H/T345S); experiment: MHC binding assay: UV-ligand exchange with β2m ELISA (peptide exchange yield); settings: binding to HLA-A*02:01 evaluated by peptide exchange yield (UV-ligand exchange, β2m ELISA)
parameter: Peptide exchange

I would be grateful if you could share the reported Peptide exchange for 22 (LMYPYIYHV; listed as Homo sapiens) [compound 22] .
+++ (≥50 = +++)

And then 158 (YLDPLWHQL; listed as Homo sapiens) [compound 158] , what is it?
+++ (≥50 = +++)

And then 214 (ALFETLIQL; listed as Homo sapiens) [compound 214] , what is it?
+++ (≥50 = +++)

And then 263 (SIIEYLPTL; listed as Homo sapiens) [compound 263] , what is it?
+++ (≥50 = +++)

And then 217 (LLWPSSVPA; listed as Homo sapiens) [compound 217] , what is it?
+++ (≥50 = +++)

And then 48 (KISDFGLATV; listed as Homo sapiens) [compound 48] , what is it?
+++ (≥50 = +++)

Next:
I would be grateful if you could share the reported Peptide exchange for 212 (MTLSEIHAV; listed as Homo sapiens) [compound 212] .
++ (≥20% = ++)

And then 83 (GLLENSPHL; listed as Homo sapiens) [compound 83] , what is it?
++ (≥20% = ++)

* * *

molecular target: HLA-A*02:01 (Homo sapiens, UniProt P04439, D140Y/D185E/D98H/E176V/E277Q/G131W/G231S/I119V/I121R/I166T/I218V/L300P/L318F/N151K/N90K/P208A/P217A/Q86G/Q94H/R138H/R169H/T345S); assay: MHC binding assay: UV-ligand exchange with β2m ELISA (peptide exchange yield); settings: binding to HLA-A*02:01 evaluated by peptide exchange yield (UV-ligand exchange, β2m ELISA)
parameter: Peptide exchange

The cases that follow already have their Peptide exchange on record.
I would be grateful if you could share the reported Peptide exchange for 245 (ALLEEEEGV; listed as Homo sapiens) [compound 245] .
++ (≥20% = ++)

And then 107 (RVLPGQAVTGV; listed as Homo sapiens) [compound 107] , what is it?
++ (≥20% = ++)

And then 49 (KLIGNIHGNEV; listed as Homo sapiens) [compound 49] , what is it?
++ (≥20% = ++)

And then 86 (SLFSNIESV; listed as Homo sapiens) [compound 86] , what is it?
+++ (≥50 = +++)

And then 17 (GLLPSAESIKL; listed as Homo sapiens) [compound 17] , what is it?
++++ (≥75% = ++++)

And then 72 (VLSTRVTNV; listed as Homo sapiens) [compound 72] , what is it?
++ (≥20% = ++)

Next:
I would be grateful if you could share the reported Peptide exchange for 33 (TLDRNSLYV; listed as Homo sapiens) [compound 33] .
++ (≥20% = ++)

And then 242 (KLQEEIPVL; listed as Homo sapiens) [compound 242] , what is it?
+++ (≥50 = +++)

And then 64 (SLYAGSNNQV; listed as Homo sapiens) [compound 64] , what is it?
++ (≥20% = ++)

And then 106 (VLLGSVVIFA; listed as Homo sapiens) [compound 106] , what is it?
++ (≥20% = ++)

And then 194 (KLLEEVQLL; listed as Homo sapiens) [compound 194] , what is it?
++ (≥20% = ++)

And then 228 (SLLELDGINLRL; listed as Homo sapiens) [compound 228] , what is it?
+++ (≥50 = +++)

And then 229 (YLYELEHAL; listed as Homo sapiens) [compound 229] , what is it?
++ (≥20% = ++)

And then 211 (LLTTVLINA; listed as Homo sapiens) [compound 211] , what is it?
+++ (≥50 = +++)

And then 192 (TLLPSSGLVTL; listed as Homo sapiens) [compound 192] , what is it?
++ (≥20% = ++)

And then 162 (GLLGNLLTSL; listed as Homo sapiens) [compound 162] , what is it?
+++ (≥50 = +++)

And then 144 (FLISQTPLL; listed as Homo sapiens) [compound 144] , what is it?
+++ (≥50 = +++)

And then 93 (RLYGYFHDA; listed as Homo sapiens) [compound 93] , what is it?
++ (≥20% = ++)

And then 275 (AVPPPPSSV; listed as Homo sapiens) [compound 275] , what is it?
++ (≥20% = ++)

And then 3 (RVIDDSLVVGV; listed as Homo sapiens) [compound 3] , what is it?
+++ (≥50 = +++)

And then 85 (KLLDKPEQFL; listed as Homo sapiens) [compound 85] , what is it?
++ (≥20% = ++)

And then 175 (SLLDLVQSL; listed as Homo sapiens) [compound 175] , what is it?
+++ (≥50 = +++)
